Assay: HSF-1 activators, primary screen, NIH3T3-HGL cells, MG132 stress, luminescence, single point (AID 504408);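 note: 0% = median of the neutral control wells and 100% = twice that signal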
Details: NIH3T3-HGL HSF-1 luciferase reporter, MG132, 8 h; at 9 µM; stronger effect = higher value; 100% = twice DMSO control signal
The campaign covered roughly 300,000 compounds. About 5,200 (1.7%) were called active. The sample holds actives, similar compounds and a random draw of the others, so the mix is not that of the screen.
measured_quantity: activation (%)
Entry rule: numbers only, all in %.

O=C(COC(=O)c1ccccc1SCC(=O)N1CCCC1)Nc1ccccc1OC(F)F
5.14
CN(c1ccc(C(=O)N2CCc3ccccc3C2)cc1)S(C)(=O)=O
57.9

I have this compound here, `O=C(CSc1nnc(-c2ccccc2O)o1)NC1CCCCC1` , and I need its recorded activation.
-7.41

Given `O=C(Nc1ccncc1)c1ccc([N+](=O)[O-])cc1Cl` , state its recorded activation.
23.1

Bench note: what activation did COc1ccc(CCNC(=O)C(=O)NCC2CCCN2S(=O)(=O)c2cccs2)cc1OC (stereo not given) show?
-2.01

Using the record for `O=C(C(=O)N1CCc2ccccc2C1)N1CCc2ccccc2C1` , report its activation.
2.97

GET /values?readout=activation&item= `CC(C)C(=O)Nc1cccc(NC(=O)c2ccc([N+](=O)[O-])cc2Cl)c1`
32.5

Quick one: activation for `COc1ccc2[nH]cc(/C=C(/C#N)S(=O)(=O)c3ccccc3)c2c1` ?
0.918

Name the recorded activation for `COc1cc(-c2nnc(NC(=O)C3=COCCO3)o2)cc(OC)c1OC` .
-3.05

What does the data say about its activation? Entry: `O=c1oc2ccccc2cc1-c1csc(Nc2ccc(O)cc2)n1`
125

Entry under review: `Cc1ccc(C(=O)/C=C/Nc2ccc(S(=O)(=O)Nc3onc(C)c3C)cc2)cc1` . Reported activation?
2.18

Report activation for `Fc1ccc(CSc2nnc(-c3cc4c(s3)-c3ccccc3CC4)o2)cc1` please.
21.9

# lookup: activation of `Cc1cc(N/C=C\C(=O)c2ccc(Cl)c(Cl)c2)no1`
54.6

Requested field: activation. Item: `COc1ccc(/C=C/C(=O)c2ccc(NS(=O)(=O)c3ccc(C)cc3)cc2)cc1O`
200

// query activation value for entry `CCNc1nc(-c2cc3ccccc3o2)cs1`
25.2

What value of activation has been reported for the following compound? `COc1ccc(/C=C(\C#N)c2c[nH]c3ccccc23)cc1`
69.3

Give its activation value. Item: `O=C(/C=C/c1ccc(Cl)cc1)Nc1ccc(Br)cn1`
6.81

Item `CCOc1cccc(/C=C/c2ccc3ccccc3n2)c1OC(C)=O` has what recorded activation?
132

Consider the compound shown here: `O=C(Nc1ccc(Br)cn1)c1ccc([N+](=O)[O-])cc1Cl` What is its recorded activation?
69.9

Param item = `COc1ccc(C(=O)n2nc(-c3ccc(Cl)cc3)nc2N)cc1OC` ; retrieve measured activation.
71.9
